Tested on: Colon cancer organoid
PROTOCOL: Identification of compartment-specific drug sensitivities in O20 CRC organoid-stroma F20 CAF co-cultures. Organoid is transduced with Lucferase2-P2A-EGFP lentivirus, fibroblast with Renilla-dsRed lentivirus. Dual-Glo Luciferase assay is used to report viability data.
Assay type: functional, Homo sapiens
Set-up: dose or concentration left out as unconfirmed
STATED_CONDITIONS: Transduced with Lucferase2-P2A-EGFP lentivirus
ENDPOINT: Cell Viability (%)
The figure you give is taken to be in %; do not add the unit.

Some molecules with recorded Cell Viability:
CN(C)c1ncnc(-c2ccc3nc(Nc4cc(CN5CCN(C(=O)CC(F)(F)F)CC5)ccn4)[nH]c3c2)c1Cl [BAY-440] ... 123.006
Cc1cc(CN)cc(C)c1-c1ncn(C)c1-c1cncn1C ... 127.793
Cc1nccc(COC(=O)N2C[C@@H]3[C@@H](CNC(=O)c4ccc5[nH]nnc5c4)[C@@H]3C2)n1 [BI 3017] ... 107.028

Entry O=C(NNS(=O)(=O)c1ccccc1)c1cc(-c2ccnnc2)ccc1F [WM-2474] , system Colon cancer organoid: what Cell Viability was measured?
104.944

Entry "Cc1c(Nc2ccc(S(=O)(=O)N3CCN(C)CC3)cc2F)nc2ccc(Nc3cnn(C4CC4)c3)cn2c1=O" , system Colon cancer organoid: what Cell Viability was measured?
118.006

Entry COc1cccc2c1C(=O)c1c(O)c3c(c(O)c1C2=O)CC(O)(C(=O)CO)CC3OC1CC(N)C(O)C(C)O1.Cl (stereo unspecified) , system Colon cancer organoid: what Cell Viability was measured?
5.3877

Entry CC1=C(C#N)C(c2ccc3[nH]nc(C)c3c2)C(C#N)=C(C)N1 [BAY-474] , system Colon cancer organoid: what Cell Viability was measured?
81.7867

Entry "CN(C)C(=O)/C(C#N)=C/c1ccc(-c2nc3cnc4[nH]ccc4c3n2C2CCCCC2)o1" , system Colon cancer organoid: what Cell Viability was measured?
75.2682

Entry "O=C1CCc2cc(Nc3cc(OC4CCOCC4)c([N+](=O)[O-])cc3Cl)ccc2N1" , system Colon cancer organoid: what Cell Viability was measured?
150.133

Entry C[C@H](c1ccc(F)cc1)N(Cc1ccc(Cl)c(C(=O)O)c1)C(=O)c1cnc2ccccc2c1 [PF-05257137] , system Colon cancer organoid: what Cell Viability was measured?
147.232

Entry CC1CCN(c2ccnc(NCc3cn(C)cn3)n2)CC1 [TP-040] , system Colon cancer organoid: what Cell Viability was measured?
75.5826

Entry "Cc1cccc(-c2cnc3occ(-c4ccc(C(=O)O)c(C5CCCC5)c4)c3c2)c1" , system Colon cancer organoid: what Cell Viability was measured?
88.6258

Entry "CCOC(=O)CCNc1cc(N2CCc3ccccc3CC2)nc(-c2cccnc2)n1" , system Colon cancer organoid: what Cell Viability was measured?
102.371

Entry O=C(Nc1cnc(Oc2ccc(F)cc2)nc1)N1CCc2ncccc2[C@@H]1c1ccc(F)cc1 [BAY-899] , system Colon cancer organoid: what Cell Viability was measured?
151.912

----------
System: Colon cancer organoid
PROTOCOL: Identification of compartment-specific drug sensitivities in O06 CRC organoid-stroma F06 CAF co-cultures. Organoid is transduced with Lucferase2-P2A-EGFP lentivirus, fibroblast with Renilla-dsRed lentivirus. Dual-Glo Luciferase assay is used to report viability data.
Format: functional, Homo sapiens
Design: dose or concentration left out as unconfirmed
STATED_CONDITIONS: Transduced with Renilla-dsRed lentivirus
Cell Viability overview
The figure you give is taken to be in %; do not add the unit.

Cn1cc(-c2ccc3occ(-c4cccc(-c5ccncc5)c4)c3n2)cn1 ... 132.305
COc1cccc2c1C(=O)c1c(O)c3c(c(O)c1C2=O)CC(O)(C(=O)CO)CC3OC1CC(N)C(O)C(C)O1.Cl (stereo not given) ... 235.56
CN1CCN(c2ccnc(NCCc3ccccc3)n2)CC1 [TP-040n] ... 123.721
CC(C)[C@H](C(=O)Nc1ccc(C(=O)NO)cc1)c1ccccc1 ... 640.047
Cc1cc(-n2nc(Cc3cc(F)cc(C(F)(F)F)c3)nc2C)ccc1C(N)=O ... 121.941

I would be grateful if you could share the reported Cell Viability for "O=C(CNCc1cc2ccccc2[nH]1)N[C@H]1CC[C@@H](c2nc3ccccc3[nH]2)CC1" .
91.436

I would be grateful if you could share the reported Cell Viability for "CCC(=O)N[C@H]1CC[C@@H](C(=O)N(C)c2ccc(-c3nc4ccccc4o3)cc2)C1" .
191.434

I would be grateful if you could share the reported Cell Viability for "O[C@H]1CC[C@H](Nc2ncc3nc(Nc4c(F)cc(F)cc4F)n([C@H]4CCOC4)c3n2)CC1" .
109.826

I would be grateful if you could share the reported Cell Viability for "CC(=O)NCC(=O)N1[C@@H]2CC[C@H]1c1ccc(Nc3ncc(C(F)(F)F)c(NC4CCC4)n3)cc12" .
82.3636

I would be grateful if you could share the reported Cell Viability for "COc1cc(OC)cc(-c2noc(N3CCN(C)C4(CCN(c5ccnc(C)c5)CC4)C3)n2)c1" .
136.172

I would be grateful if you could share the reported Cell Viability for "COc1cc(-c2cn([C@H]3CCc4c(F)cccc4N(CC(F)(F)F)C3=O)nn2)ccc1-n1cnc(C)c1" .
94.2085

I would be grateful if you could share the reported Cell Viability for "CN(C)c1ncnc(-c2ccc3nc(Nc4cc(CN5CCN(C(=O)CC(F)(F)F)CC5)ccn4)[nH]c3c2)c1Cl" .
104.43

I would be grateful if you could share the reported Cell Viability for "COc1cc(Nc2ncc3c(n2)-c2ccc(Cl)cc2C(c2c(F)cccc2OC)=NC3)ccc1C(=O)O" .
169.322

I would be grateful if you could share the reported Cell Viability for "Cc1nc(C2CCN(C(=O)c3ccc(OC(F)(F)F)cc3N)CC2)c2ncc(N3CCN(C)CC3)cc2n1" .
166.908

I would be grateful if you could share the reported Cell Viability for "O=C(Nc1cnc(Oc2ccc(F)cc2)nc1)N1CCc2ncccc2[C@@H]1c1ccc(F)cc1" .
100.101

----------
Tested on: Colon cancer organoid
PROTOCOL: Identification of compartment-specific drug sensitivities in O20 CRC organoid-stroma F20 CAF co-cultures. Organoid is transduced with Lucferase2-P2A-EGFP lentivirus, fibroblast with Renilla-dsRed lentivirus. Dual-Glo Luciferase assay is used to report viability data.
Format: functional, Homo sapiens
Parameters: dose or concentration left out as unconfirmed
STATED_CONDITIONS: Transduced with Renilla-dsRed lentivirus
Cell Viability overview

Some compounds with recorded Cell Viability:
C[C@@H](Oc1cc(-n2cnc3ccc(CN4CCN(C)CC4)cc32)sc1C(N)=O)c1ccccc1C(F)(F)F [GSK-461364] ... 141.481%
CN1CCN(c2ccc(OC(F)(F)F)c(Nc3ncc4c(n3)-c3c(c(C(N)=O)nn3CCO)CC4)c2)CC1 [ONVANSERTIB] ... 184.086%

Let us move to another entry and its Cell Viability.
Entry "Cc1ccc2nc(NCCN)c3ncc(C)n3c2c1.O=C(O)C(F)(F)F.O=C(O)C(F)(F)F" , system Colon cancer organoid: what Cell Viability was measured?
67.6056%

----------
Tested on: Colon cancer organoid
PROTOCOL: Identification of compartment-specific drug sensitivities in O06 CRC organoid-stroma F06 CAF co-cultures. Organoid is transduced with Lucferase2-P2A-EGFP lentivirus, fibroblast with Renilla-dsRed lentivirus. Dual-Glo Luciferase assay is used to report viability data.
Format: functional, Homo sapiens
Design: dose or concentration left out as unconfirmed
STATED_CONDITIONS: Transduced with Renilla-dsRed lentivirus
ENDPOINT: Cell Viability (%)
The figure you give is taken to be in %; do not add the unit.

COc1cc2c(NC3CCN(C(C)C)CC3)nc(N3CCC(F)(F)CC3)nc2cc1OCCCN1CCCC1 ... 104.162
CCc1ccccc1C(=O)Nc1n[nH]c2c(C)c(F)c(C3C(C#N)=C(C)N(C)C(C)=C3C#N)cc12 [BAY-3827] ... 108.902
CC(=O)c1c(NS(C)(=O)=O)c2cc(-c3ccc(Cl)cc3)c(-c3ccc(Cl)cc3Cl)nc2n(C)c1=O [MRL-CB1-NC] ... 76.9916
CC[C@@H]1CN(C(=O)NCC(F)(F)F)C[C@@H]1c1cnc2cnc3[nH]ccc3n12 [UPADACITINIB] ... 86.3482
O=C(Nc1cccnn1)N1CC(C/C=C/c2cncc(Oc3ccc(C(F)(F)F)cn3)n2)C1 ... 92.9489
C[C@H](NC(=O)c1cnc2n1[C@](C)(Cc1ccc(C#N)cc1)C(=O)N2c1cc(Cl)c(F)c(Cl)c1)C(=O)NC1(c2ccccn2)CC1 [BI 1950] ... 408.477
CNC(=O)Nc1ccc(-c2nc(N3CC4CCC(C3)O4)c3cnn(C4CCC5(CC4)OCCO5)c3n2)cc1 ... 48.532
COCC(=O)NC/C=C/c1ccc2ncnc(Nc3ccc(Oc4ccc(C)nc4)c(C)c3)c2c1 [CP-724714] ... 58.1065

Entry CC1CCN(c2ccnc(NCc3cn(C)cn3)n2)CC1 [TP-040] , system Colon cancer organoid: what Cell Viability was measured?
163.738

Entry Cc1noc(C)c1-c1cnc2c(-c3ccc(C(=O)O)cc3)cn([C@@H](C)c3ccccn3)c2c1 [PLX-51107] , system Colon cancer organoid: what Cell Viability was measured?
312.702

Entry "Cc1nc(N2CC[C@H](O)C2)ncc1-c1cc(C(F)(F)F)cc2[nH]ncc12" , system Colon cancer organoid: what Cell Viability was measured?
144.84

Entry "CCCCN(Cc1ccccc1)C(=O)c1ccc(S(=O)(=O)Nc2ccccc2)cc1" , system Colon cancer organoid: what Cell Viability was measured?
126.816

Entry Cc1c(NC(=O)COc2ccc(Cl)cc2C(=O)c2cc(F)cc(C(F)(F)F)c2)ccc(C(=O)O)c1F [BI 2540] , system Colon cancer organoid: what Cell Viability was measured?
125.125
